optical density listing for selected binders.
# assay target: human ACVR2A (human, UniProt P27037 20-135, limits assumed); also: test concentration or dose not given here
# Sequence (P27037 20-135 limits assumed): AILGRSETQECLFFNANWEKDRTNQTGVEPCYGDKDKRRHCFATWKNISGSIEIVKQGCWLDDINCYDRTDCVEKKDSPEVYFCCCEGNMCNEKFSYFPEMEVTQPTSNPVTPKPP
# test name: ELISA
Respond numerically; units are OD and should not be typed.

Some entries whose results are on file:
[
  {
    "binder": "374_C05 (antibody, V domains shown, VH/VL only) VH: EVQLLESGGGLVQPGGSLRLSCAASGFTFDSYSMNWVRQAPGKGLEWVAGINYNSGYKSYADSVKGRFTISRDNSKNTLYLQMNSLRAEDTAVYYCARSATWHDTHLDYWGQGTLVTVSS VL: DIQMTQSPSSLSASVGDRVTITCRASQSIIRYLNWYQQKPGKAPKLVIYAATSRASGVPSRFSGSGSGTDFTLTISSLQPEDFATYYCQQSYDNPLTFGGGTKVEIK",
    "optical density [OD]": 3.7
  },
  {
    "binder": "365_G12 (antibody, V domains shown, VH/VL only) VH: EVQLLESGGGLVQPGGSLRLSCAASGFTFSSYGMNWVRQAPGKGLEWVAGINYNSGYTSYADSVKGRFTISRDNSKNTLYLQMNSLRAEDTAVYYCARSATWHDTALDYWGQGTLVTVSS VL: DIQMTQSPSSLSASVGDRVTITCRASQSILSYVNWYQQKPGKAPKLVIYAATSRASGVPSRFSGSGSGTDFTLTISSLQPEDFATYYCQQSYSNPLTFGGGTKVEIK",
    "optical density [OD]": 2.74
  },
  {
    "binder": "374_H06 (antibody, V domains shown, VH/VL only) VH: EVQLLESGGGLVQPGGSLRLSCAASGFTFSSYGMNWVRQAPGKGLEWVSNINYNGGYTGYADSVKGRFTISRDNSKNTLYLQMNSLRAEDTAVYYCARSANWHDTALDYWGQGTLVTVSS VL: DIQMTQSPSSLSASVGDRVTITCRASQSIVSYVNWYQQKPGKAPKLVIYAATSRASGVPSRFSGSGSGTDFTLTISSLQPEDFATYYCQQSYNLPLTFGGGTKVEIK",
    "optical density [OD]": 3.3
  }
]

Query string: // lookup optical density for 375_E01 (antibody, V domains shown, VH/VL only) VH: EVQLLESGGGLVQPGGSLRLSCAASGFTFSSYSMNWVRQAPGKGLEWVSGINYNSGYKSYADSVKGRFTISRDNSKNTLYLQMNSLRAEDTAVYYCARSANWHDTALDYWGQGTLVTVSS VL: DIQMTQSPSSLSASVGDRVTITCRASQSILTYLNWYQQKPGKAPKLVIYAATSRASGVPSRFSGSGSGTDFTLTISSLQPEDFATYYCQQSDDSPLTFGGGTKVEIK
Result string: 3.16

Query string: Look up optical density for this binder: 372_D04 (antibody, V domains shown, VH/VL only) VH: EVQLLESGGGLVQPGGSLRLSCAASGFTFSSYSMNWVRQAPGKGLEWVANINYNSGYTGYADSVKGRFTISRDNSKNTLYLQMNSLRAEDTAVYYCARSATWHDTHLDYWGQGTLVTVSS VL: DIQMTQSPSSLSASVGDRVTITCRASQSILTYLNWYQQKPGKAPKLLIYAATSLHSGVPSRFSGSGSGTDFTLTISSLQPEDFATYYCQQSYDLPLTFGGGTKVEIK
Result string: 3.4

Query string: What does the data say about its optical density? Entry: 371_D03 (antibody, V domains shown, VH/VL only) VH: EVQLLESGGGLVQPGGSLRLSCAASGFTFDSYGMNWVRQAPGKGLEWVANINYNGGYTSYADSVKGRFTISRDNSKNTLYLQMNSLRAEDTAVYYCARSATWHDTALDYWGQGTLVTVSS VL: DIQMTQSPSSLSASVGDRVTITCRASQSILTYVNWYQQKPGKAPKLVIYAATSLASGVPSRFSGSGSGTDFTLTISSLQPEDFATYYCQQSYNTPLTFGGGTKVEIK
Result string: 1.54
